FYI, the data here is from ChEMBL document CHEMBL1201862.

System: UO-31
Assay: NCI tumour cell line growth inhibition, 48 h
Calls of active or inactive are those of the source. No stated cut-off is given here; in the data, active = GI50 up to about 1.1 µM and inactive = higher.
Respond with a class label; see 1 (active), -1 (inactive)

Could you check what this test reported for COc1cc2c(cc1OC)C1C=NC(C(=O)O)(C2)c2ccccc21 (centres undefined) ?
-1

Could you check what this test reported for `NC(=O)Cn1c(=O)[nH]c(=O)c2[nH]cnc21` ?
-1

Could you check what this test reported for COC(=O)[C@]1(C)CC[C@]2(C)CC[C@]3(C)C4[C@H]5Oc6c(cc7c(c6C)CCC6[C@@]7(C)CC[C@@]7(C)C8[C@](C)(CCC[C@@]8(C)C(=O)OC)CC[C@]67C)O[C@H]5c5c(cc6c(c5C)O[C@@]5(C)C7=CC=C8[C@@](C)(CC[C@@]9(C)[C@@H]%10C[C@](C)(C(=O)OC)CC[C@]%10(C)CC[C@]89C)C7=CC(=O)[C@@]5(O)O6)[C@]4(C)CC[C@@]3(C)C2C1 (some centres undefined) ?
-1

Could you check what this test reported for `Cc1ccc(S(=O)(=O)NC(=O)NCCc2ccc(O)c(O)c2)cc1` ?
-1

Could you check what this test reported for CC12CC1C(c1cccc([N+](=O)[O-])c1)(c1cccc([N+](=O)[O-])c1)N=N2 (centres undefined) ?
-1

Could you check what this test reported for COc1cc2c(c3oc4c(O)cccc4c(=O)c13)CC(C(C)(O)CCl)O2 (centres undefined) ?
1

Could you check what this test reported for `O=[N+]([O-])c1cccc(-c2ccc([C@H]3CC(c4ccc(Cl)cc4)=NN3)o2)c1` ?
-1

Could you check what this test reported for CO[C@@H](C(=O)OC1C=CC2(CC1)C(=O)N(C)c1ccccc12)c1ccccc1 (some centres undefined) ?
-1

Could you check what this test reported for CC1(C)OCC([C@H]2CC23SCCCS3)O1 (some centres undefined) ?
-1

====

Test system: NCI-H460
Test: NCI tumour cell line growth inhibition, 48 h
Activity calls are given as the source filed them. No stated cut-off is given here; in the data, active = GI50 up to about 1.1 µM and inactive = higher.
Respond with a class label; see active, inactive

Could you check what this test reported for NC1=NN(c2ccccc2)C(=O)C1/C(=N\NC(=O)c1cc2ccccc2cc1O)C(=O)Nc1nc([N+](=O)[O-])cs1 (centres undefined) ?
inactive

Could you check what this test reported for `Cc1cc2c(cc1Cl)SC(N/N=C(\N)c1ccc(Cl)cc1)=NS2(=O)=O` ?
inactive

Could you check what this test reported for `CCOC(=O)[C@H]1C[C@@H](C(=O)c2ccccc2)N2N=C(c3ccc(Br)cc3)C=C[C@H]12` ?
inactive

Could you check what this test reported for `N#C/C(=C/n1c(=S)[nH]c2ccc([N+](=O)[O-])cc21)C(N)=O` ?
inactive

Could you check what this test reported for `C/C(=N\N=C(\N)OB(F)F)c1ccccn1` ?
inactive

Could you check what this test reported for `COc1ccc(CN2C(=O)[C@@H]3Cc4c(OC)c(C)c(OC)c(OC)c4[C@H](/C2=C\c2cc(OC)c(OC)c(C)c2OC)N3C(=O)OC(C)C)cc1` ?
inactive

Could you check what this test reported for `CCOc1ccc(/C(C=O)=C(\Cl)c2ccc(OC)cc2)cc1` ?
inactive

Could you check what this test reported for COc1ccc(-n2c(Cn3nnc(-c4cccnc4)n3)nn(C3OC(COC(=O)c4ccccc4)C(OC(=O)c4ccccc4)C3OC(=O)c3ccccc3)c2=S)cc1 (centres undefined) ?
inactive

Could you check what this test reported for `O=S(=O)(O)n1ccnc1` ?
inactive

Could you check what this test reported for `COS(C)(=O)=O` ?
inactive

Could you check what this test reported for C[C@@H]1OCC(O)C([C@H]2OC(c3ccccc3)=N[C@H]2CO)O1 (some centres undefined) ?
inactive

Could you check what this test reported for Nc1ncnc2c1ncn2C1CC(O)C(CO)O1 (centres undefined) ?
inactive

Could you check what this test reported for `Nn1c(-c2cccc(Cl)c2)nc2ccccc2c1=O` ?
inactive

Could you check what this test reported for `O=C1CCCC/C1=C(\Br)I` ?
inactive

Could you check what this test reported for Cc1ccc(-n2nc(C(OC3OC(CO)C(O)C(O)C3O)C(O)CO)c3nc4cc(C)c(C)cc4nc32)cc1 (centres undefined) ?
inactive

Could you check what this test reported for `CC(C)(C)OC(=O)N1CCc2[nH][nH]c(=O)c2C1` ?
inactive

Could you check what this test reported for CCOC(=O)N1CCN(P(=O)(Nc2ccc3[nH]c(NC(=O)OC)nc3c2)Oc2ccccc2)CC1 (centres undefined) ?
inactive

Could you check what this test reported for `CN(C)C(=S)/N=c1\ssc(=S)n1C1CCCCC1` ?
inactive

Could you check what this test reported for `O=C1/C(=C/c2cccnc2)SC(=S)N1Cc1ccco1` ?
inactive

Could you check what this test reported for CC(=O)OCC(OC(C)=O)C(OC(C)=O)C(OC(C)=O)C(=O)CNn1c(-c2ccccc2Cl)nc2ccccc2c1=O (centres undefined) ?
inactive

Could you check what this test reported for Oc1c(C2=NNC(c3cccs3)C2)ccc2ccccc12 (centres undefined) ?
inactive

Could you check what this test reported for CC1C2(C)OC(=N)C(C#N)(C(c3ccco3)O2)C1(C#N)C#N (centres undefined) ?
inactive

Could you check what this test reported for `O=C(O)c1cccc(/C=C/c2ccccc2)c1` ?
inactive

Could you check what this test reported for `COc1ccc2c(ccc3c(C(=O)NCCN(C)CCNC(=O)c4cn(C)c5c4ccc4cc(OC)ccc45)cn(C)c32)c1` ?
inactive

Could you check what this test reported for CC1(C)C2CCC1(CC(=O)O)C(Cl)C2 (centres undefined) ?
inactive

Could you check what this test reported for COc1ccc2c(c1)CCC1C3(CCCC21C)OCCO3 (centres undefined) ?
inactive

Could you check what this test reported for `COc1cc([C@H]2c3[nH]c4ccccc4c3C[C@H]3COC(=O)N32)cc(OC)c1O` ?
active

Could you check what this test reported for `CCOC(=O)Nc1ccc2c(c1)N(C(=O)CCN(CC)CC)c1ccccc1S2` ?
inactive

Could you check what this test reported for `CSc1nc(Cl)c(Br)c(Sc2nc(N)nc3nc[nH]c23)n1` ?
inactive

====

Tested on: M14
Experiment: NCI tumour cell line growth inhibition, 48 h
Calls of active or inactive are those of the source. Cut-off read from the data, not from the text of the source: active = GI50 up to about 1.1 µM and inactive = higher.
Would you kindly list GI50 for each of these compounds?

Lab note: `CCOC(=O)c1cc2c([nH]1)c(OC(C)=O)cc1c2ccn1Cc1ccccc1` gave GI50 of > 100 µM (inactive)

Lab note: `Fc1cccc(Cl)c1/C=N\N=C1c2ccccc2-c2ccccc21` gave GI50 of > 100 µM (inactive)

Lab note: CCOC(=O)CCC1(C(=O)O[C@@H]2C[C@H](C)CC[C@H]2C(C)C)CCCCC1=O (stereo partly drawn) gave GI50 of 56.5 µM (inactive)

====

Test system: MDA-N
Assay: NCI tumour cell line growth inhibition, 48 h
Calls of active or inactive are those of the source. Cut-off read from the data, not from the text of the source: active = GI50 up to about 1.1 µM and inactive = higher.
Would you kindly list GI50 for each of these compounds?

Lab note: O=C(C1OC1c1ccc(F)cc1)C12CC3CC(CC(C3)C1)C2 (centres undefined) gave GI50 of 12.7 µM (inactive)

Lab note: Cn1cc2c3ccccc3nc-2c2ccccc21 [ISOCRYPTOLEPINE] gave GI50 of 2.04 µM (inactive)

Lab note: `NCCCN1CCN(CCCNc2ccc3nnn4c5ccccc5c(=O)c2c34)CC1` gave GI50 of 16.2 µM (inactive)

Lab note: `O=C(CNc1nccs1)Nn1cnc2ccc(S(=O)(=O)Nc3nccs3)cc2c1=O` gave GI50 of > 100 µM (inactive)

====

Tested on: OVCAR-8
Experiment: NCI tumour cell line growth inhibition, 48 h
Active and inactive are the calls of the source. No stated cut-off is given here; in the data, active = GI50 up to about 1.1 µM and inactive = higher.
readoutKind: GI50

Lab note: `COC(=O)C(CCCCN)NC(C)=O.Cc1ccc(C(=O)Nc2ccc(S(=O)(=O)O)c3cc(S(=O)(=O)O)cc(S(=O)(=O)O)c23)cc1NC(=O)c1cccc(NC(=O)Nc2cccc(C(=O)Nc3cc(C(=O)Nc4ccc(S(=O)(=O)O)c5cc(S(=O)(=O)O)cc(S(=O)(=O)O)c45)ccc3C)c2)c1` gave GI50 of > 50 µM (inactive)

Lab note: `COc1cccc(/C=N/n2c(C)n[nH]c2=O)c1` gave GI50 of > 100 µM (inactive)

Lab note: `C[n+]1c(-c2ccc(/C=N\N3CCN(/N=C/c4ccc(-c5cn6ccsc6[n+]5C)cc4)CC3)cc2)cn2ccsc21` gave GI50 of 41.7 µM (inactive)

Lab note: COc1ccc2c(c1)CCC1C3(CCCC21C)OCCO3 (centres undefined) gave GI50 of 17.5 µM (inactive)

Lab note: CCOC(=O)CC(C)C1(C=O)CCCCC1=O (centres undefined) gave GI50 of > 100 µM (inactive)

Lab note: `O=[PH](O)c1cc2c3ccccc3ccc2c2ccccc12` gave GI50 of > 100 µM (inactive)

Lab note: `Nc1ccc(C(=O)N2CCC[C@H]2CO)c(N)c1` gave GI50 of > 100 µM (inactive)

Lab note: COc1ccc(/C=C2\CCC(Cc3ccccc3)(CN(C)C)C2=O)cc1 (centres undefined) gave GI50 of 41.6 µM (inactive)

Lab note: `COc1cccc(Nc2nc(C)c([N+](=O)[O-])c(Nc3cccc(OC)c3)n2)c1` gave GI50 of 5.74 µM (inactive)
